All values here come from patent US6987093B2.

Assay: Azithromycin serum pharmacokinetics in mice
Type: in vivo, mouse
Conditions: female, CF-1, mouse, 33 mg/kg; Serum PK; total dose 100 mg/kg oral; 3 days of dosing, 33.3 mg/kg/dose; read-out: AUC(0-tlast)
quantity measured: AUC(0-t) (ng·h/mL)

smiles_input=CC[C@H]1OC(=O)[C@H](C)[C@@H](O[C@H]2C[C@@](C)(OC)[C@@H](O)[C@H](C)O2)[C@H](C)[C@@H](O[C@@H]2O[C@H](C)C[C@H](N(C)C)[C@H]2O)[C@](C)(O)C[C@@H](C)CN(C)[C@H](C)[C@@H](O)[C@]1(C)O data_value=19800
